tested on: Haemophilus influenzae; assay: Ratio of MBC to MIC for Haemophilus influenzae type b ATCC 49247 by M7-A9 microdilution method; format: functional
test-readout: Ratio
Keep it simple and answer with nothing but the number.

Look up Ratio: CC1(C)CC[C@]2(C(=O)O)CC[C@]3(C)C(=CC[C@@H]4[C@@]5(C)CC[C@H](O)[C@@](C)(CO)[C@@H]5[C@H](O)C[C@]43C)[C@@H]2[C@@H]1O
2.7

Thanks! And C[C@@H]1CC[C@]2(C(=O)O)CC[C@]3(C)C(=CC[C@@H]4[C@@]5(C)CC[C@@H]6OC([C@H]7[C@@H]8C[C@H]9c%10[nH]c%11ccccc%11c%10CCN9C(=O)C8=CO[C@@H]7C)OC[C@]6(CO)[C@@H]5CC[C@]43C)[C@@H]2[C@]1(C)O (stereo partly drawn) ?
2

Now the molecule C[C@H]1OC=C2C(=O)N3CCc4c([nH]c5ccccc45)[C@@H]3C[C@H]2[C@@H]1C=O
4

Follow-up entry: C/C=C1/CO[C@H](O)[C@H]2C(=O)N3CCc4c([nH]c5ccccc45)[C@@H]3C[C@@H]12
2.7

Then what about the molecule C[C@H]1[C@H](C)CC[C@]2(C(=O)O)CC[C@]3(C(=O)O)C(=CC[C@@H]4[C@@]5(C)CCC(=O)C(C)(C)[C@@H]5CC[C@]43C)[C@H]12 ?
2.7

Same again, this time with O=C(O)c1cn(C2CC2)c2cc(N3CCNCC3)c(F)cc2c1=O
1

Input C/C=C1/COC(=O)[C@H]2C(=O)N3CCc4c([nH]c5ccccc45)[C@@H]3C[C@@H]12
2.7

Same read-out for CC(O)c1coc2c(=O)n3c(cc12)-c1[nH]c2ccccc2c1CC3 (stereo not drawn) ?
2

One more molecule: CC1(C)CC[C@]2(C(=O)O)CC[C@]3(C)C(=CC[C@@H]4[C@@]5(C)CC[C@H](O)[C@@](C)(CO)[C@@H]5[C@H](O)C[C@]43C)[C@@H]2C1
2.7

Then this molecule: C[C@@H]1CC[C@]2(C(=O)O)CC[C@]3(C)C(=CC[C@@H]4[C@@]5(C)CC[C@H](O)C(C)(C)[C@@H]5CC[C@]43C)[C@@H]2[C@]1(C)O
2.7

* * *

tested on: Haemophilus influenzae; test: Antibacterial activity against Haemophilus influenzae type b ATCC 49247 incubated for 24 hrs by M7-A9 microdilution method; assay type: functional; conditions: type b ATCC 49247, 24 h
Kindly supply the reported log10 MIC values for the records listed here.
Plainly stated, the numbers are log10 of MIC given in µg/mL.

// lookup log10 MIC for C[C@H]1[C@H](C)CC[C@]2(C(=O)O)CC[C@]3(C(=O)O)C(=CC[C@@H]4[C@@]5(C)CCC(=O)C(C)(C)[C@@H]5CC[C@]43C)[C@H]12
1.27

And for C[C@H]1OC=C2C(=O)N3CCc4c([nH]c5ccccc45)[C@@H]3C[C@H]2[C@@H]1C=O ?
0.49

Another: C[C@@H]1CC[C@]2(C(=O)O)CC[C@]3(C)C(=CC[C@@H]4[C@@]5(C)CC[C@@H]6OC([C@H]7[C@@H]8C[C@H]9c%10[nH]c%11ccccc%11c%10CCN9C(=O)C8=CO[C@@H]7C)OC[C@]6(CO)[C@@H]5CC[C@]43C)[C@@H]2[C@]1(C)O (stereo partly drawn)
1.40

Would you mind doing C/C=C1/CO[C@H](O)[C@H]2C(=O)N3CCc4c([nH]c5ccccc45)[C@@H]3C[C@@H]12 as well?
0.67

Do the same for C/C=C1/COC(=O)[C@H]2C(=O)N3CCc4c([nH]c5ccccc45)[C@@H]3C[C@@H]12 please
0.67

Consider next the molecule COC(OC)[C@H]1[C@@H]2C[C@H]3c4[nH]c5ccccc5c4CCN3C(=O)C2=CO[C@@H]1C in the same way.
1.70

Now give it for CC1(C)CC[C@]2(C(=O)O)CC[C@]3(C)C(=CC[C@@H]4[C@@]5(C)CC[C@H](O)[C@@](C)(CO)[C@@H]5[C@H](O)C[C@]43C)[C@@H]2C1 too.
1.27

Try this molecule too: C/C=C(/C=O)c1cc2n(c(=O)c1O)CCc1c-2[nH]c2ccccc12
1.70

What do you have for C[C@H]1[C@H](C)CC[C@]2(C(=O)O)CC[C@]3(C(=O)O)C(=CC[C@@H]4[C@@]5(C)CC[C@H](O)C(C)(C)[C@@H]5CC[C@]43C)[C@H]12 ?
1.40

Item: O=C(O)c1cn(C2CC2)c2cc(N3CCNCC3)c(F)cc2c1=O
0.20

Then CC1(C)CC[C@]2(C(=O)O)CC[C@]3(C)C(=CC[C@@H]4[C@@]5(C)CC[C@H](O)[C@@](C)(CO)[C@@H]5[C@H](O)C[C@]43C)[C@@H]2[C@@H]1O ?
1.27

Now consider CC(O)c1coc2c(=O)n3c(cc12)-c1[nH]c2ccccc2c1CC3 (stereo not drawn) .
1.40

Another molecule to check: C[C@@H]1CC[C@]2(C(=O)O)CC[C@]3(C)C(=CC[C@@H]4[C@@]5(C)CC[C@H](O)C(C)(C)[C@@H]5CC[C@]43C)[C@@H]2[C@]1(C)O
1.27

* * *

test system: Haemophilus influenzae; assay: Ratio of MBC to MIC for Haemophilus influenzae type b ATCC 49247 by M7-A9 microdilution method; assay type: functional
Assignment: determine reported Ratio for the given compounds.

Item C/C=C(/C=O)c1cc2n(c(=O)c1O)CCc1c-2[nH]c2ccccc12 with Haemophilus influenzae - Ratio?
>1

Thanks! And COC(OC)[C@H]1[C@@H]2C[C@H]3c4[nH]c5ccccc5c4CCN3C(=O)C2=CO[C@@H]1C ?
>1

Proceed to C[C@H]1[C@H](C)CC[C@]2(C(=O)O)CC[C@]3(C(=O)O)C(=CC[C@@H]4[C@@]5(C)CC[C@H](O)C(C)(C)[C@@H]5CC[C@]43C)[C@H]12
>2

Hey, just so you know, these numbers are from ChEMBL document CHEMBL4414555.
